IC50 overview
- TEST TARGET: T1, human VEGFA165 (human, UniProt P15692-4 27-191)
- T1 construct: Bought protein from two suppliers, treated as one molecule; the supplier is named under assay; also called antigen VEGFA
- T1 sequence (P15692 other isoform, or with tags, fused parts or gaps limits assumed): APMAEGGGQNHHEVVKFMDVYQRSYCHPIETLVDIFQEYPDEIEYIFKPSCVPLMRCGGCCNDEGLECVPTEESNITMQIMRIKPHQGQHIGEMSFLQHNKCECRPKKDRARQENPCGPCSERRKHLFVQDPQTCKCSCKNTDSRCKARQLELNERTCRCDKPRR
- ASSAY DETAILS: competitive ELISA, coated VEGFA, competitor VEGFR2-ECD-Fc 1 nM
Reply numerically in nM, unit not repeated.

Answered examples (4):
INSERT INTO results (binder, value_reported) VALUES
  ('2V15-EAAAK-Turn (VHH, Tandem bivalent nanobody) QLQLVESGGGSVQPGGSLRLSCEVSGRTFASYTMGWFRQAPGKEREFVVAISKGGYKYDSVSLEARFTISKDNTKNTVYLQMNSLKPEDTAVYYCAGTRAYGSSRLRLAETYEYWGQGTQVTVSSPDSEAAAKEAAAKEAAAKEAAAKEAAAKPDGSSQLQLVESGGGSVQPGGSLRLSCEVSGRTFASYTMGWFRQAPGKEREFVVAISKGGYKYDSVSLEARFTISKDNTKNTVYLQMNSLKPEDTAVYYCAGTRAYGSSRLRLAETYEYWGQGTQVTVSS', 1.76),
  ('2V15-20GS (VHH, Tandem bivalent nanobody) QLQLVESGGGSVQPGGSLRLSCEVSGRTFASYTMGWFRQAPGKEREFVVAISKGGYKYDSVSLEARFTISKDNTKNTVYLQMNSLKPEDTAVYYCAGTRAYGSSRLRLAETYEYWGQGTQVTVSSGGGGSGGGSGGGSGGGSGGSQLQLVESGGGSVQPGGSLRLSCEVSGRTFASYTMGWFRQAPGKEREFVVAISKGGYKYDSVSLEARFTISKDNTKNTVYLQMNSLKPEDTAVYYCAGTRAYGSSRLRLAETYEYWGQGTQVTVSS', 2.03),
  ('2V15-30GS (VHH, Tandem bivalent nanobody) QLQLVESGGGSVQPGGSLRLSCEVSGRTFASYTMGWFRQAPGKEREFVVAISKGGYKYDSVSLEARFTISKDNTKNTVYLQMNSLKPEDTAVYYCAGTRAYGSSRLRLAETYEYWGQGTQVTVSSGGGGSGGGSGGGGSGGGSGGGSGGGSGGGSQLQLVESGGGSVQPGGSLRLSCEVSGRTFASYTMGWFRQAPGKEREFVVAISKGGYKYDSVSLEARFTISKDNTKNTVYLQMNSLKPEDTAVYYCAGTRAYGSSRLRLAETYEYWGQGTQVTVSS', 1.6),
  ('2V1-3GS (VHH, Tandem bivalent nanobody) QLQLVESGGGSVQPGGSLRLSCEVSGRTFSSYTMGWFRQAPGKEREFVVAISKGGYKYDSVSLEARFTISKDNTKNTVYLQMNSLKPEDTAVYYCAATRAYGSSRLRLADTYEYWGQGTQVTVSSGGSQLQLVESGGGSVQPGGSLRLSCEVSGRTFSSYTMGWFRQAPGKEREFVVAISKGGYKYDSVSLEARFTISKDNTKNTVYLQMNSLKPEDTAVYYCAATRAYGSSRLRLADTYEYWGQGTQVTVSS', 3);

Sample 2V15-25GS (VHH, Tandem bivalent nanobody) QLQLVESGGGSVQPGGSLRLSCEVSGRTFASYTMGWFRQAPGKEREFVVAISKGGYKYDSVSLEARFTISKDNTKNTVYLQMNSLKPEDTAVYYCAGTRAYGSSRLRLAETYEYWGQGTQVTVSSGGGGSGGGSGGGSGGGSGGGSGGGSQLQLVESGGGSVQPGGSLRLSCEVSGRTFASYTMGWFRQAPGKEREFVVAISKGGYKYDSVSLEARFTISKDNTKNTVYLQMNSLKPEDTAVYYCAGTRAYGSSRLRLAETYEYWGQGTQVTVSS ; IC50 observed: 1.66
